# Experimental Target: JAK2 (a.a. 828-1132) (Homo sapiens)
# Construct: JAK2 (a.a. 828-1132); His tag (N)
# Sequence (O60674 828-1132): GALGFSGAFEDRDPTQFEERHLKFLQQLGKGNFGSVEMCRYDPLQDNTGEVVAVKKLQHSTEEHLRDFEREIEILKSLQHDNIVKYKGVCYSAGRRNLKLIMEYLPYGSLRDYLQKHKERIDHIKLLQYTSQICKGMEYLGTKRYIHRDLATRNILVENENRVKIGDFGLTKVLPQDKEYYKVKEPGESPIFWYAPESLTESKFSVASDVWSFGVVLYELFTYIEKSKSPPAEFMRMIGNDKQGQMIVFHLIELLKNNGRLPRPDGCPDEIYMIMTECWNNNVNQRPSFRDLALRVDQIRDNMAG
# Run Description: In vitro JAK kinase assay (HTRF, phosphorylation of biotinylated peptide), JAK2
# Type: biochemical
# Experimental Conditions: read-out: JAK2 IC50 (nM) at 1 mM ATP, Table F
Reported values of IC50 for individual entries

>  <Compound>
N#CCC1(n2cc(-c3ncnc4[nH]ccc34)cn2)CC(N2CCC(Oc3cc(CCO)nc(C(F)(F)F)n3)CC2)C1 (single isomer, unassigned; peak 1) [Example 164, peak 1]

>  <IC50>
> 100 nM

$$$$
>  <Compound>
N#CCC1(n2cc(-c3ncnc4[nH]ccc34)cn2)CC(N2CCC(Oc3cc(CCO)nc(C(F)(F)F)n3)CC2)C1 (single isomer, unassigned; peak 2) [Example 164, peak 2]

>  <IC50>
> 100 nM

$$$$

----------
# Experimental Target: JAK2 (a.a. 828-1132) (Homo sapiens)
# Construct: JAK2 (a.a. 828-1132); His tag (N)
# Run Description: In vitro JAK kinase assay (HTRF, phosphorylation of biotinylated peptide), JAK2
# Type: biochemical
# Experimental Conditions: Table B; 1 mM ATP; read-out: JAK2 IC50
pIC50: −log10 of the molar value. Where a name gives a salt, the structure may show the parent alone.

>  <Molecule>
N#CC[C@]1(n2cc(-c3ncnc4[nH]ccc34)cn2)C[C@H](N2CCN(Cc3cc(F)cc(C#N)c3)CC2)C1 [Example 1b]

>  <Experimental Target>
JAK2 (a.a. 828-1132) (Homo sapiens)

>  <pIC50>
7.00 to 7.60

$$$$
>  <Molecule>
N#CC[C@]1(n2cc(-c3ncnc4[nH]ccc34)cn2)C[C@H](N2CCN(C(=O)c3ccc(C(F)(F)F)cc3F)CC2)C1 [Example 18, (trifluoroacetate) Salt]

>  <Experimental Target>
JAK2 (a.a. 828-1132) (Homo sapiens)

>  <pIC50>
7.60 to 8.00

$$$$
>  <Molecule>
CN(C)c1ccc(CN2CCN([C@H]3C[C@](CC#N)(n4cc(-c5ncnc6[nH]ccc56)cn4)C3)CC2)c(F)c1C#N [Example 2b]

>  <Experimental Target>
JAK2 (a.a. 828-1132) (Homo sapiens)

>  <pIC50>
7.00 to 7.60

$$$$

----------
# Experimental Target: human JAK1 (a.a. 837-1142) (Homo sapiens)
# Sequence (P23458 849-1154): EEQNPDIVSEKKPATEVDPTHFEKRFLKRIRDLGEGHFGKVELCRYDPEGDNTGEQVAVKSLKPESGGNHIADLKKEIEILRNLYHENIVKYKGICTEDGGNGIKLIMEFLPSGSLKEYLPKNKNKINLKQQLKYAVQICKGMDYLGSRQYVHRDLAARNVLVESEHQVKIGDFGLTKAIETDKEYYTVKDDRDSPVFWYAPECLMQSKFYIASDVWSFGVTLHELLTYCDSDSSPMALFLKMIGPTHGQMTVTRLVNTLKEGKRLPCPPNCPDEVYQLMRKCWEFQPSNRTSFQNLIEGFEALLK
# Run Description: In vitro JAK kinase assay (HTRF, phosphorylation of biotinylated peptide), JAK1
# Type: biochemical
# Experimental Conditions: Table A; 1 mM ATP; read-out: JAK1 IC50
# Experimental: Compounds herein were tested for inhibitory activity of JAK targets according to the following in vitro assay described in Park et al., Analytical Biochemistry 1999, 269, 94-104. […] The phosphorylated peptide was detected by homogenous time resolved fluorescence (HTRF). […] Binding to the Europium labeled antibody took place for 40 minutes and HTRF signal was measured on a Fusion plate reader (Perkin Elmer, Boston, Mass.). […]

>  <Compound>
N#CC[C@]1(n2cc(-c3ncnc4[nH]ccc34)cn2)C[C@@H](N2CCN(C(=O)c3cc(F)cnc3Cl)CC2)C1 [Example 9a]

>  <IC50>
10 to 25 nM

$$$$
>  <Compound>
N#CC[C@]1(n2cc(-c3ncnc4[nH]ccc34)cn2)C[C@@H](N2CCN(Cc3cncc(F)c3)CC2)C1 [Example 23a]

>  <IC50>
10 to 25 nM

$$$$
>  <Compound>
N#CC[C@]1(n2cc(-c3ncnc4[nH]ccc34)cn2)C[C@@H](N2CCN(C(=O)c3cc(F)cc(C#N)c3)CC2)C1 [Example 12a]

>  <IC50>
< 10 nM

$$$$
